Biological target: GST-Mcl-1 / biotinylated Bim BH3 peptide (Homo sapiens, UniProt Q07820)
Sequence (Q07820 whole entry): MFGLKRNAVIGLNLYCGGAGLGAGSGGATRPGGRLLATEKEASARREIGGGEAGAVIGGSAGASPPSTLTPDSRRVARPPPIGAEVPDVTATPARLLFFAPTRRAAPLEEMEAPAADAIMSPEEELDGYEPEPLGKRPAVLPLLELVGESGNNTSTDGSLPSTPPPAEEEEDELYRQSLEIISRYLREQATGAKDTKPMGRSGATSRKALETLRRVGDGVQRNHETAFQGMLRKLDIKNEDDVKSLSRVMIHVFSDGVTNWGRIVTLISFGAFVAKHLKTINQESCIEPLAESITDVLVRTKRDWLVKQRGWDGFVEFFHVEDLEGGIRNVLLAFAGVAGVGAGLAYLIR
Assay: ELISA, disruption of Mcl-1 binding to Bim
property_measured: IC50 (µM)
# number only, unit µM dropped from output

**Query** I am curious: what IC50 value has been reported for O=C(c1ccccc1O)c1[nH]c(Cl)c(Cl)c1-n1c(C(=O)c2ccccc2O)cc(Cl)c1Cl (racemic) [Compound 1, (±)-marinopyrrole A, reference compound] ?
**Result** 8.9

----------
Tested on: Mcl-1, Bim and caspase 3 in MDA-MB-468 cells
Assay: Western blotting after treatment of intact human breast cancer cells
Type: cell-based
Conditions: 10 μM for 16 h
property_measured: cleavage of caspase 3

1) CCOP(=O)(OCC)c1ccc(C(=O)c2[nH]c(Cl)c(Cl)c2-n2c(C(=O)c3ccc(P(=O)(OCC)OCC)cc3O)cc(Cl)c2Cl)c(O)c1 [Compound 5a] :: little effect
2) O=C(c1ccc(P(=O)(O)O)cc1O)c1[nH]c(Cl)c(Cl)c1-n1c(C(=O)c2ccc(P(=O)(O)O)cc2O)cc(Cl)c1Cl [Compound 8a] :: little effect

The origin of these recorded values is paper PMC3967213.
